Reported GI50 is given for each of the following compounds.
- Test system: OVCAR-3
- assay_comment: NCI tumour cell line growth inhibition, 48 h
Calls of active or inactive are those of the source. Cut-off read from the data, not from the text of the source: active = GI50 up to about 1.1 µM and inactive = higher.

compound: OCN(CO)c1ccc2c(c1)Cc1cc(F)ccc1-2
GI50: 13.9 µM (inactive)

compound: CCC1(O)C(=O)OCc2c1cc1n(c2=O)Cc2cc3cc(OC)c(OC)cc3nc2-1 (stereo not drawn)
GI50: 83.4 µM (inactive)

compound: Cc1ccc2c(c1)NC(c1ccc(C(=O)O)cc1)c1cccn1-2 (stereo not drawn)
GI50: 47.3 µM (inactive)

compound: C=CC1(C)/C(=N\O)C(C)(CC)C(=O)N1O (stereo not drawn)
GI50: > 100 µM (inactive)

compound: O=C1c2scc(-c3ccc(F)cc3)c2-n2cccc21
GI50: 54.1 µM (inactive)

compound: COc1ccccc1NC(=O)C(CC(C(=O)Nc1ccccc1OC)/C(C)=N/Nc1ccc([N+](=O)[O-])cc1[N+](=O)[O-])/C(C)=N/Nc1ccc([N+](=O)[O-])cc1[N+](=O)[O-] (stereo not drawn)
GI50: 77.4 µM (inactive)

compound: O=c1c(Cc2ccc(Cc3c(O)oc4ccccc4c3=O)cc2)c(O)oc2ccccc12
GI50: > 100 µM (inactive)

compound: COC1(CC[C@@H](C)COC2OC(CO)C(O)C(O)C2O)OC2C[C@H]3[C@@H]4CC[C@H]5C[C@@H](OC6OC(CO)C(OC7OC(CO)C(O)C(O)C7O)C(O)C6OC6OC(C)C(O)C(O)C6O)[C@H](O)C[C@]5(C)[C@H]4CC[C@]3(C)C2[C@@H]1C (stereo partly drawn)
GI50: 1.82 µM (inactive)

compound: CN(C)CCn1cnc2sc3ccccc3c21
GI50: > 100 µM (inactive)

compound: CN1N=C(c2ccncc2)OC1c1ccccc1F (stereo not drawn)
GI50: > 100 µM (inactive)

compound: Cc1cc(N(CCC#N)CCC#N)ccc1/N=N/c1ccc([N+](=O)[O-])cc1
GI50: 47.2 µM (inactive)

compound: Cc1ccc(NC(=O)C(=O)C(C(=O)c2ccc3ccccc3c2)C2OC(=O)c3ccccc32)cc1C (stereo not drawn)
GI50: 10.9 µM (inactive)

compound: CC1=CCC[C@H]2[C@](C)(CC3=CC(=O)C(SCC(C)C)=CC3=O)[C@@H](C)CC[C@]12C
GI50: 17.4 µM (inactive)

compound: CCOC(=O)/C(=N/Nc1ccc(C)cc1)N1C(=S)N(C)N=C(C)C=C1S
GI50: > 100 µM (inactive)

compound: c1ccc(CN(Cc2ccccn2)Cn2cccn2)nc1
GI50: > 100 µM (inactive)

compound: COC(=O)C1=C(O)C(C(=O)OC)[C@@]2(O)[C@@H](C(=O)OC)CC[C@@H]1[C@@H]2C(=O)OC (stereo partly drawn)
GI50: 21.3 µM (inactive)

compound: COc1cc(/C=C(/C#N)C(N)=O)ccc1O
GI50: > 100 µM (inactive)

compound: COC(=O)C(=O)C(C(=O)C(=O)Nc1nc2ccc(C)cc2s1)c1nc2ccc([N+](=O)[O-])cc2nc1O (stereo not drawn)
GI50: > 100 µM (inactive)

* * *

- Test system: BT-549
- assay_comment: NCI tumour cell line growth inhibition, 48 h
Active and inactive are the calls of the source. Cut-off read from the data, not from the text of the source: active = GI50 up to about 1.1 µM and inactive = higher.
Outcomes: true = active, false = inactive

compound: Nc1cc(C(=O)O)nc(O)n1
system_name: BT-549
category_label: false

compound: CCCC(=O)[O-].[Na+] [SODIUM BUTYRATE]
system_name: BT-549
category_label: false

compound: O=C(O)CN(CC(=O)O)C1CCCCC1N1CC(=O)OC(=O)C1 (stereo not given)
system_name: BT-549
category_label: false

compound: CSc1nncc(-c2cc3c(c(SC)n2)CCCC3)n1
system_name: BT-549
category_label: false

compound: CC(C)CC(N)C(=O)Nc1ccc2ccccc2c1 (stereo not given)
system_name: BT-549
category_label: false

compound: C[n+]1cn(C2=C([N-]S(=O)(=O)c3ccccc3)C(=O)c3ccccc3C2=O)c2ccccc21
system_name: BT-549
category_label: false

compound: COc1cc(/C=C2/C(=O)N(C(=O)c3ccccc3O)N=C2C)cc(OC)c1OC
system_name: BT-549
category_label: true

compound: Nc1nc2c(c(-c3cccc(Cl)c3)n1)COC/C2=C\c1cccc(Cl)c1
system_name: BT-549
category_label: false

compound: N#C[BH2-][n+]1ccc(C(=O)NNC(c2ccccc2)C(F)(F)F)cc1 (stereo not given)
system_name: BT-549
category_label: false

compound: C/C(Cc1ccc2c(c1)OCO2)=N\NC(=O)C(C)Sc1nnc(SC(C)C(=O)N/N=C(\C)Cc2ccc3c(c2)OCO3)s1 (stereo not given)
system_name: BT-549
category_label: false

Measured values drawn from ChEMBL document CHEMBL1201862 for this set.
